Assign self-splicing fitness (ln) to each entry below.
# experimental_protocol: self-splicing fitness, log relative to wild type (ln ratio); higher = more splicing; Tetrahymena group I intron in knt gene, E. coli kanamycin selection, DiMSum; sequences stand for … in CUCUCU…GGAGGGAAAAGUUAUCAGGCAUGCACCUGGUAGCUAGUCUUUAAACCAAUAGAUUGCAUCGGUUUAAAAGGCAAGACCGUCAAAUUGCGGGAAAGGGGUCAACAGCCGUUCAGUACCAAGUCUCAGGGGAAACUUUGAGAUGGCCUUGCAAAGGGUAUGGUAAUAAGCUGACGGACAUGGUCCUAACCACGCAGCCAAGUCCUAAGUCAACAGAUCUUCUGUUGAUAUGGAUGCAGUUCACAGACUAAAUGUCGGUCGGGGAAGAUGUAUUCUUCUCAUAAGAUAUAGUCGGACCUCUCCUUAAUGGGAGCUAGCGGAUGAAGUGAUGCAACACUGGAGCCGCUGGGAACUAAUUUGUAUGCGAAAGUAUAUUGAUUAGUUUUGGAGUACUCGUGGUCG;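 also: selection with 25 µg/mL kanamycin versus none on LB agar overnight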
# measurement_context: 30 °C
Respond using a number only.

Ask: For the sequence "AUCGAGCAAUAUUACGAGGU" , what self-splicing fitness (ln) is on record?
Result: -3.26

Ask: For the sequence "GCCGAGCAAUAUUACGUUUC" , what self-splicing fitness (ln) is on record?
Result: -3.12

Ask: For the sequence "AAUAAGCAAUAUUACGCGCA" , what self-splicing fitness (ln) is on record?
Result: -0.438

Ask: For the sequence "UAUAAGCAAUAUUACGUUUA" , what self-splicing fitness (ln) is on record?
Result: -1.03

Ask: For the sequence "CGGCAGCAAUAUUACGGCUU" , what self-splicing fitness (ln) is on record?
Result: -0.457

Ask: For the sequence "AGGCAGCAAUAUUACGCUUA" , what self-splicing fitness (ln) is on record?
Result: -0.31

Ask: For the sequence "GUGGAGCAAUAUUACGCCCU" , what self-splicing fitness (ln) is on record?
Result: -1.79

Ask: For the sequence "AUGAAGCAAUAUUACGGCUC" , what self-splicing fitness (ln) is on record?
Result: -0.602

Ask: For the sequence "GGCGAGCAAUAUUACGGGUG" , what self-splicing fitness (ln) is on record?
Result: -2.31

Ask: For the sequence "CCAAAGCAAUAUUACGGGUC" , what self-splicing fitness (ln) is on record?
Result: -4.39

Ask: For the sequence "CGACAGCAAUAUUACGUGGC" , what self-splicing fitness (ln) is on record?
Result: -3.68

Ask: For the sequence "AACAAGCAAUAUUACGGCUG" , what self-splicing fitness (ln) is on record?
Result: -0.419

Ask: For the sequence "UACUAGCAAUAUUACGAACG" , what self-splicing fitness (ln) is on record?
Result: -0.328

Ask: For the sequence "CCGAAGCAAUAUUACGCGUA" , what self-splicing fitness (ln) is on record?
Result: -3.7

Ask: For the sequence "CGCCAGCAAUAUUACGAAAG" , what self-splicing fitness (ln) is on record?
Result: -0.802

Ask: For the sequence "CCCAAGCAAUAUUACGAGAA" , what self-splicing fitness (ln) is on record?
Result: -3.57

Ask: For the sequence "AAGCAGCAAUAUUACGACUU" , what self-splicing fitness (ln) is on record?
Result: -0.223

Ask: For the sequence "GAUGAGCAAUAUUACGAAUG" , what self-splicing fitness (ln) is on record?
Result: -2.71

Ask: For the sequence "GGGAAGCAAUAUUACGGAAA" , what self-splicing fitness (ln) is on record?
Result: -1.4

Ask: For the sequence "GAGCAGCAAUAUUACGCAUU" , what self-splicing fitness (ln) is on record?
Result: -3.04

Ask: For the sequence "UAUGAGCAAUAUUACGCAAA" , what self-splicing fitness (ln) is on record?
Result: -2.74

Ask: For the sequence "UCAAAGCAAUAUUACGGCCG" , what self-splicing fitness (ln) is on record?
Result: -0.434

Ask: For the sequence "UUCAAGCAAUAUUACGUAUU" , what self-splicing fitness (ln) is on record?
Result: -3.82

Ask: For the sequence "CAGGAGCAAUAUUACGGUGA" , what self-splicing fitness (ln) is on record?
Result: -2.96

Ask: For the sequence "AUUGAGCAAUAUUACGUAGU" , what self-splicing fitness (ln) is on record?
Result: -2.08

Ask: For the sequence "GGUUAGCAAUAUUACGACUG" , what self-splicing fitness (ln) is on record?
Result: -0.729

Ask: For the sequence "UCGAAGCAAUAUUACGCGGU" , what self-splicing fitness (ln) is on record?
Result: -2.73

Ask: For the sequence "AGGGAGCAAUAUUACGUCCA" , what self-splicing fitness (ln) is on record?
Result: -1.11

Ask: For the sequence "AGGUAGCAAUAUUACGGGGC" , what self-splicing fitness (ln) is on record?
Result: -3.75

Ask: For the sequence "CAUCAGCAAUAUUACGAUAU" , what self-splicing fitness (ln) is on record?
Result: -1.76

Ask: For the sequence "UCCUAGCAAUAUUACGGUCA" , what self-splicing fitness (ln) is on record?
Result: -0.978

Ask: For the sequence "CGUUAGCAAUAUUACGUUGU" , what self-splicing fitness (ln) is on record?
Result: -4.22

Ask: For the sequence "CCAUAGCAAUAUUACGAAUC" , what self-splicing fitness (ln) is on record?
Result: -3.22

Ask: For the sequence "CGGGAGCAAUAUUACGUUUC" , what self-splicing fitness (ln) is on record?
Result: -3.92
